Catalogue of variants with associated protein stability index
B1: ZNF8 (parent)
chain: RIHTGERPYMCKECGKAFSQNSSL

# Variants of: B1
# TEST: protein stability index of a GFP-peptide fusion (GPS, HEK-293T) (PSI 1-6); higher = more stable;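 also: lentivirally expressed fusions sorted by FACS into six bins by GFP to DsRed ratio, PSI derived from sequencing read proportions per bin multiplied by bin number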
# RUN PARAMETERS: c terminus: a fixed tail appended
VALUE TYPE: protein stability index

# MUTATIONS, NUMERIC READOUT
rows = [
    ("C11K", 3.08),
    ("G15H", 2.32),
    ("G5D", 2.64),
    ("G15P", 2.54),
    ("N21P", 2.44),
    ("C11F", 2.36),
    ("K16H", 2.29),
    ("M10D", 2.84),
    ("K16S", 2.05),
    ("T4I", 2.68),
    ("S22F", 1.89),
    ("T4P", 3.3),
    ("Q20S", 2.2),
    ("T4A", 2.21),
    ("C11N", 2.81),
    ("A17C", 2.46),
    ("H3D", 2.91),
    ("H3R", 1.96),
    ("E13H", 2.14),
    ("M10R", 1.95),
    ("C14E", 3.07),
    ("Y9W", 2.19),
    ("S22R", 2.19),
    ("L24I", 2.74),
    ("G5T", 2.31),
    ("H3Y", 2.33),
    ("S19I", 2.01),
    ("H3A", 1.99),
    ("G5K", 2.5),
    ("A17L", 2.47),
    ("S22Q", 2.58),
    ("T4D", 2.74),
    ("H3I", 2.74),
    ("K12T", 2.15),
    ("N21H", 2.4),
    ("A17M", 2.67),
    ("C11Y", 2.28),
    ("P8E", 3.22),
    ("R1I", 2.77),
    ("R1H", 3.56),
    ("G5E", 3.37),
    ("T4W", 1.89),
    ("R7Y", 2.39),
    ("E13K", 1.78),
    ("P8G", 2.53),
    ("N21I", 2.04),
]
